Taken from paper PMC10692205.

Catalogue of Kd values
biological target: T1, chemically biotinylated full length human Gasdermin D (GSDMD) (Homo sapiens (Human)., UniProt P57764, chemically biotinylated (ChromaLink Biotin), approximately 2 biotins per molecule; sites not stated); assay: SPR; chemically biotinylated GSDMD captured on a Series S Sensor Chip CAP (biotin capture kit); nanobodies injected as analytes, multi-cycle kinetics, 120 s association, 300 s dissociation, 1:1 binding model; 25 °C; 20 mM HEPES pH 8.0, 200 mM NaCl, 5 mM DTT, 0.05% Tween20; details: both partners purified
T1 construct: human Gasdermin D, wild-type, full length, residues 1-484; also called chemically biotinylated GSDMD; not shown: His6, N-terminal, cleaved; SUMO, N-terminal, cleaved
T1 sequence (P57764 whole entry, the tested form may be a part): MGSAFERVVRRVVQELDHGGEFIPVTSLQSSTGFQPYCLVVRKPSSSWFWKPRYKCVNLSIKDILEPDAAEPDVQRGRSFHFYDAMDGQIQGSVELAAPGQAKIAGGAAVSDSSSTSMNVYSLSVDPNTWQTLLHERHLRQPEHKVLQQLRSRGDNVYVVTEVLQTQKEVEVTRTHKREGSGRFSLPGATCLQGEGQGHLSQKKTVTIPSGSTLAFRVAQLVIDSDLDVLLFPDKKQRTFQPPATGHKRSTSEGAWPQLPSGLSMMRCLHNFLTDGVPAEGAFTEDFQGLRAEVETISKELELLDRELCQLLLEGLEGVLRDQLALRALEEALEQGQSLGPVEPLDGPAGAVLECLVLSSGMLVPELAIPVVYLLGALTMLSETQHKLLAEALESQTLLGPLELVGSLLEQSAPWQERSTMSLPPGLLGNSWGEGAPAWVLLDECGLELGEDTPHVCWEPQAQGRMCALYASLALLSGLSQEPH

Binder	Result units	Kd
VHH_(GSDMD-5) (VHH, source: E. coli WK6, periplasmic expression (pHEN6), purified (Ni-NTA, gel filtration)) VHH: QVQLVETGGGLVQPGGSLRLSCAASGFVFSINPMNWYRQAPGKERELVAYISMRGSTTNYADSVKGRFIISRDNAKNTLYLQMNSLKPEDTAVYYCNAPSRSVWGQGTQVTVSS	nM	0.49
VHH_(GSDMD-3) (VHH, source: E. coli WK6, periplasmic expression (pHEN6), purified (Ni-NTA, gel filtration)) VHH: QVQLVETGGGLVQPGGSLRLSCAASGFTLDIYNMGWFRQAPGKEREGVSCISSRYGTSTYYADSVKGRFTISRDNAKNTVYLQMNNLKPEDTAVYYCATVSWRFTTNQDVCLTPSVSGYWGQGTQVTVSS	nM	0.55
VHH_(GSDMD-1) (VHH, raised by immunization of an alpaca with full-length recombinant human GSDMD; also called VHH_(GSDMD-1)-LPETG-His; source: E. coli WK6, periplasmic expression (pHEN6), purified (Ni-NTA, gel filtration); not shown: LPETG, C-terminal, kept; His tag, C-terminal, kept) VHH: QVQLVESGGALVQPGGSLRLSCSASGFTFSKYLMSWYRQAPGKERELVATITTAGGNTNYADSVKGRFTISRDNAKNTVYLQMNSLKPEDTAVYYCKASGGTIRTVNETYWGQGTQVTVSS	nM	0.31
VHH_(GSDMD-2) (VHH, CDR1, -2, -3 of 10, 9 and 12 residues; disulfide C22-C95; also called VHH_(GSDMD-2)-LPETG-His; source: E. coli WK6, periplasmic expression (pHEN6), purified (Ni-NTA, gel filtration); not shown: LPETG, C-terminal, kept; His tag, C-terminal, kept) VHH: QVQLVESGGGLVQPGGSLRLSCVDSRSWINVYGANWYRQAPGKERELVAALTSGGTTNYADSVKGRFTISRDNAKNTVYLQMRDLKPEDTAVYYCNLERYTGSSVYPWGQGTQVTVSS	nM	0.64
